B1: POU domain, class 6, transcription factor 2, residues 609 to 663; numbered along this chain, P78424 (parent)
chain: KRRTSFTPQALEILNAHFEKNTHPSGQEMTEIAEKLNYDREVVRVWFCNKRQALK

Variants of: B1
Assay: abundance fitness (aPCA) (normalised: wild type 0, dead -1); higher = more abundant; growth selection in yeast, the domain comes from the species named
Details: Homo sapiens
Quantity Measured: abundance fitness
# respond with the number and nothing more

### Prompt Returns the measured abundance fitness for the input variant. Input: KRRTSFTPQALEILNRHFEKNTHPSGQEMTEIAEKLNYDREVVRVWFCNKRQALK
### Response -0.084

### Prompt What would you report for KRRTSFTPQALLILNAHFEKNTHPSGQEMTEIAEKLNYDREVVRVWFCNKRQALK ?
### Response -0.403

### Prompt How about this variant: KRRTSFTPQALEILNAHFEKNTHPSGMEMTEIAEKLNYDREVVRVWFCNKRQALK
### Response -0.39

### Prompt And the next one, KRRTSFTPQALEILNAHFEKNTHPSGQEMTEIAEKLNYDREVVREWFCNKRQALK ?
### Response -0.194

### Prompt Same question, KRRTSFTPQALEILNAHFEKNTHPSGQEMTEIAEKLNYDREVVRVWFCNKRYALK this time
### Response -0.339

### Prompt Proceed to KRRTSFTPQALEILNAHFEKNTHISGQEMTEIAEKLNYDREVVRVWFCNKRQALK
### Response -0.21

### Prompt Consider next the variant KRRTSFTPQALEILNAHFEKNTHPSGQEMTEIDEKLNYDREVVRVWFCNKRQALK in the same way.
### Response -0.669

### Prompt Also check KRRTSFTWQALEILNAHFEKNTHPSGQEMTEIAEKLNYDREVVRVWFCNKRQALK
### Response -0.394

### Prompt Follow-up entry: KRRTSFTVQALEILNAHFEKNTHPSGQEMTEIAEKLNYDREVVRVWFCNKRQALK
### Response 0.004
